Assay: MRT (0 to infinity) in C57BL/6J mouse at 100 mg/kg/day, ig by HPLC-MS/MS analysis
Type: ADME, organism-based
Settings: in vivo, po
readout-kind: MRT inf (h)
Could you give me the number in h? Just the number is fine.

Record CCc1ccccc1COc1ccccc1C(=O)Nc1cccnc1 . Reported MRT inf: 2.57

----------
Test: Half life in C57BL/6J mouse at 25 mg/kg/day, ig by HPLC-MS/MS analysis
Type: ADME, organism-based
Conditions: in vivo, po
readout-kind: half-life (h)
Could you give me the number in h? Just the number is fine.

Record CCc1ccccc1COc1ccccc1C(=O)Nc1cccnc1 . Reported half-life: 3.22

meta.source: ChEMBL document CHEMBL4411297
